Just for reference, PubChem BioAssay (NCI) is where these values come from.

# System: LOX IMVI melanoma
# measurement protocol: NCI tumour cell line growth inhibition, 48 h
property: TGI

Reported TGI for CC1(C)OC(=O)C=C([O-])O1.CC1(C)OC(=O)C=C([O-])O1.O=S(=O)([O-])c1ccc([O-])c2ncccc12.O=S(=O)([O-])c1ccc([O-])c2ncccc12.[Ti+4] : what is it?
> 100 µM

Request the reported TGI associated with CCN(CC)CCCOC(=O)/C=C/c1c(C)[nH]c(=O)[nH]c1=O
> 625 µM

I have this compound here, Nc1nnc2cc(Cl)ccc2n1 , and I need its recorded TGI.
> 100 µM

Look up TGI for this compound: O=C1C(F)=CC(COC(c2ccccc2)(c2ccccc2)c2ccccc2)OC1n1cc(F)c(=O)[nH]c1=O (centres undefined)
3.54 µM

# lookup: TGI of CCNC(=O)C#CC(=O)NCC
> 100 µM

For the compound COc1ccccc1C1SCC(=O)N1c1ccc(-c2ccc(-n3c(-c4ccccc4)nc4ccccc4c3=O)cc2)cc1 (centres undefined) , what TGI is on record?
> 100 µM

Request the reported TGI associated with O=C(Nc1nc2c(=O)[nH]cnc2s1)c1ccccc1
> 100 µM

Requested field: TGI. Item: c1ccc(C2=Nc3nc4ccccc4n3C(c3ccccc3)C2)cc1 (centres undefined)
> 100 µM

For CC(C)[C@@H]1CC[C@@H](C)C[C@H]1OC(=O)/C=C1/C2C=CC(O2)C1C(=O)O[C@@H]1C[C@H](C)CC[C@H]1C(C)C (some centres undefined) , what is its reported TGI?
> 100 µM

###

# System: XF 498 CNS
# measurement protocol: NCI tumour cell line growth inhibition, 48 h
property: log10 TGI (log10 of the value in µM)
Recorded TGI (log10, µM)

Sample O=C1CSC(/C(=C\c2ccc(Cl)cc2)c2nc3ccccc3[nH]2)=N1 — what was its log10 TGI?
0.48

Any idea what log10 TGI was measured for Cc1cc(O)c2c(c1O)C(=O)C13C(=C2O)C(=O)C2C(O)C1C1C(O)C3C(=O)C3=C(O)c4c(O)cc(C)c(O)c4C(=O)C321 (configuration not stated) ?
-0.30

# log10 TGI lookup, item Cc1c2c(cc3c1[nH]c1ccccc13)C=NCC2
1.10

For the compound shown here, C=C1C(=O)OC2(C)C3CCC(C3)C12 (configuration not stated) , give the reported log10 TGI.
1.99

Field request: log10 TGI | item: O=C1C=C(Br)C(=O)C12CCc1ccccc12 (configuration not stated)
1.46

Record request: log10 TGI value, item C=C1C[C@@H](O)C[C@@]2(C)C[C@@H]3OC(=O)C(=C)[C@@H]3C[C@H]12
0.67

###

# Test system: LXFL 529 NSCLC
# measurement protocol: NCI tumour cell line growth inhibition, 48 h
property: TGI

Fill in the recorded TGI for this compound, with LXFL 529 NSCLC as test system: CC1(C)OC(=O)C=C([O-])O1.CC1(C)OC(=O)C=C([O-])O1.O=S(=O)([O-])c1ccc([O-])c2ncccc12.O=S(=O)([O-])c1ccc([O-])c2ncccc12.[Ti+4]
> 100 µM

Lab note: need TGI with LXFL 529 NSCLC for entry N=c1nnc(=O)c2c(s1)-n1ncc(C(=O)O)c1NN2 , please look it up.
> 100 µM

GET /values?readout=TGI&system=LXFL 529 NSCLC&item= COc1ccccc1-c1cc(=O)c2ccccc2[nH]1
> 100 µM

Find TGI (LXFL 529 NSCLC) for the entry Cc1c(C(=O)NCCO)[n+](=O)c2cc(Cl)ccc2n1[O-]
> 100 µM

Query the reported TGI for LXFL 529 NSCLC; item: NC(=O)N/N=C/C(/C=N/NC(N)=O)[N+](=O)[O-]
> 100 µM

Look up TGI with LXFL 529 NSCLC for this compound: O=C(Nc1nc2ccccc2n1Cc1ccccc1)NC12CC3CC(CC(C3)C1)C2
> 100 µM

Find the measured TGI: item CCOC(=O)C1(Cc2ccccc2)CCCCCN1 (stereo not given) , target or system LXFL 529 NSCLC.
> 100 µM

Could you share what TGI was measured for Cc1c(C(=O)c2ccccc2C(=O)O)c2ccccc2n1C , tested on LXFL 529 NSCLC?
> 100 µM

Please provide the recorded TGI for CC(=O)OCCOCNC(=S)N/N=C(\C)c1cnc2ccccc2n1 , tested on LXFL 529 NSCLC.
> 100 µM

Any idea what TGI came out for CCC(=O)C(C)C1=Nc2nnc(CCCCCCCc3nnc4n3C(=O)C(C(C)C(=O)CC)=N4)n2C1=O (stereo not given) on LXFL 529 NSCLC?
> 100 µM
